# Tested on: CYP3A4 (Homo sapiens)
# Sequence (P08684 whole entry, species assumed): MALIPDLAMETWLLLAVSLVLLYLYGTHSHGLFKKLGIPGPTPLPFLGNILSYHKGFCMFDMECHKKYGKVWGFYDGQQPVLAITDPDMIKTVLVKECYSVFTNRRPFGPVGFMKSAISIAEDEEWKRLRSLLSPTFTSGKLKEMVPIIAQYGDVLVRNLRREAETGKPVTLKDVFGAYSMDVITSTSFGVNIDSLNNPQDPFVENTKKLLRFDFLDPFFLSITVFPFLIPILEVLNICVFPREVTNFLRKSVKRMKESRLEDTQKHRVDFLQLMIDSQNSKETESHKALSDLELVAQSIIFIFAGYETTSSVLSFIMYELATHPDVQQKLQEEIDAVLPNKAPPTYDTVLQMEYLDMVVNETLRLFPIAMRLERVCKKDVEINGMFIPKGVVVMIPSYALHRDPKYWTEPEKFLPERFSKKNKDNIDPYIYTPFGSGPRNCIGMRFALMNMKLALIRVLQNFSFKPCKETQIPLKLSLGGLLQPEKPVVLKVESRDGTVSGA
# Test name: Metabolic stability (CYP3A4)
# Assay type: in vitro ADME
# Experimental setup: CYP3A4, 1 hr
Measured metric: recovery at 1 hr (%)

>>> recorded_measurement("c1ccc(-c2c[nH]c(-c3ccccc3)n2)cc1")
87

* * *

# Test name: in vivo
# Experimental setup: mouse
Measured metric: TD50 (mg/kg)

>>> recorded_measurement("COc1ccc(-c2nc3ccccc3[nH]2)cc1")
601

* * *

# Test name: Tox, comparison compounds (species not stated)
# Format: in vivo
Measured metric: Tox (mg/kg)

>>> recorded_measurement("COc1ccc(-c2nc(-c3ccccc3)c[nH]2)cc1 [MV1118]")
223
>>> recorded_measurement("c1ccc(-c2c[nH]c(-c3ccccc3)n2)cc1 [MV1115]")
126

Recorded values, source patent US12403128B2.
